We begin with a simple list: items and their reported Kd.
Assay Target: T1, human sclerostin, mature form (signal peptide removed) (human, UniProt Q9BQB4 24-213)
T1 construct: 190 amino acid glycoprotein with four disulfide bonds (C1-C5, C2-C6, C3-C7, C4-C8); also called SOST; recombinant human sclerostin
T1 sequence: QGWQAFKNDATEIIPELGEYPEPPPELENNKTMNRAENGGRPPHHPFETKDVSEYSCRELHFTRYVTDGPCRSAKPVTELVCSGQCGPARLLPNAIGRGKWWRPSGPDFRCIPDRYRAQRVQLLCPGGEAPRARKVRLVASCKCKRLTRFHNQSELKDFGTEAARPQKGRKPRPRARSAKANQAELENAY
Test Summary: KinExA solution equilibrium binding, human sclerostin-coated beads
Answer in pM, number only, no unit symbol.

Antibody 14 (antibody, human IgG2, kappa, V domains shown, Humanized Ab-13; Mature LC and HC; also called Ab-14; Ab14) VH: EVQLVQSGAEVKKPGASVKVSCKASGYTFTDYYMNWVRQAPGQRLEWMGDINPYNDDTTYNHKFKGRVTITRDTSASTAYMELSSLRSEDTAVYYCARETAVITTNAMDYWGQGTTVTVSS VL: DIQLTQSPSFLSASVGDRVTITCRASSSVTSSYLNWYQQKPGKAPKLLIYSTSNLASGVPSRFSGSGSGTEFTLTISSLQPEDFATYYCQQYDFFPSTFGGGTKVEIKR :: 1

Any idea what Kd was measured for Antibody 5 (antibody, human IgG2, kappa, V domains shown, Humanized Ab-4; Mature LC and HC; also called Ab-5) VH: EVQLVQSGAEVKKPGASVKVSCKASGYTFTDYNMHWVRQAPGQGLEWMGEINPNSGGAGYNQKFKGRVTMTTDTSTSTAYMELRSLRSDDTAVYYCARLGYDDIYDDWYFDVWGQGTTVTVSS VL: DIQMTQSPSSLSASVGDRVTITCRASQDISNYLNWYQQKPGKAPKLLIYYTSRLLSGVPSRFSGSGSGTDFTLTISSLQPEDFATYYCQQGDTLPYTFGGGTKVEIKR ?
6

Any idea what Kd was measured for Antibody 13 (antibody, mouse IgG1, kappa, V domains shown, Mature LC and HC; Parent of humanized Ab-14; also called Ab-13) VH: EVQLQQSGPELVKPGASVKMSCKASGYTFTDYYMNWVKQSHGESLEWIGDINPYNDDTTYNHKFKGKATLTVDKSSNTAYMQLNSLTSEDSAVYYCARETAVITTNAMDYWGQGTSVTVSS VL: QIVLTQSPAIMSASPGEKVTMTCRASSSVTSSYLNWYQQKPGSSPKLWIYSTSNLASGVPARFSGSGSGTSYSLTISSVEAEDAATYYCQQYDFFPSTFGGGTKLEIKR ?
0.6
